# credit: patent US20230346820A1

# methodSummary: in vitro
# experimentalSetup: human, Uninfected HeLa-ACE2 CC50 (μM)
endpointName: CC50

Observe how each entry below is paired with its result.
>>> df
                                   molecule     result
0  O=S(=O)(Nc1ccc(CCNC[C@H](O)c2cccnc2)cc1)c1ccc(-c2nc(-c3ccc(C(F)(F)F)cc3)cs2)cc1    5.51 µM
1  Cc1cccc(/C=N/Nc2cc(N3CCOCC3)nc(OCCc3ccccn3)n2)c1  > 27.8 µM
2  CC(C)Oc1ccc(-c2nc(-c3cccc4c3CC[C@@H]4NCCO)no2)cc1C#N  > 14.7 µM
3  C=CC(=O)Nc1cc(Nc2nccc(-c3cn(C)c4ccccc34)n2)c(OC)cc1N(C)CCN(C)C  > 18.1 µM
4  CN1CCN(c2ccc(C(=O)NCc3cnc(C#N)nc3NCC(C)(C)C)cc2)CC1  > 36.1 µM
5  CCOC(=O)[C@@H]1O[C@H]1C(=O)N[C@@H](CC(C)C)C(=O)N1CCN(Cc2ccc(OC)c(OC)c2OC)CC1  > 39.8 µM

# CC50 of COc1ccc2c(c1)CN(C)CC2c1ccc(Cl)c(Cl)c1 (stereo not shown) = > 40 µM

###

# key: entry, value: EC50
# Tested on: SARS-CoV-2
# methodSummary: microbe, parasite or virus in culture
# experimentalSetup: Severe acute respiratory syndrome coronavirus 2, HeLa-ACE2, 24 h, read-out: CoV-2 EC50 [μM] (Geomeans, n ≥ 2)
Unit µM implied. Number only.

molecule	EC50 / µM
Cc1cccc(/C=N/Nc2cc(N3CCOCC3)n3nc(-c4ccncc4)cc3n2)c1 [APY0201]	0.014
Nc1nc(Nc2ccc3c(c2)CC[C@@H](N2CCCC2)CC3)nn1-c1cc2c(nn1)-c1ccccc1CCC2 [BGB324/R-428]	1.2
COc1ccc(C2(c3ccccc3)NC(=O)N(CCCN3CCC(c4ccccc4)CC3)C2=O)cc1 (stereo not shown) [ROPITOIN]	4.08
COc1cc(-n2cnc3cc(-c4ccc(Cl)cc4)sc3c2=O)ccc1OCCN1CCCC1 [GW-803430]	1.7

# ---- query molecule ----
EC50 reported for this molecule COC(=O)C1=C(C)NC(C)=C(C(=O)OC)C1c1cc([N+](=O)[O-])ccc1OCCCCNC[C@H](O)COc1ccccc1 [YM 161514] : 1.86

###

# System: HeLa-ACE2 cells
# experimentalSetup: human
Where a name gives a salt, the structure may show the parent alone.
Each record is given 1.0 if its reported CC50 is strictly below 20 µM. Records at or above 20 µM are given 0.0.

Known results for compounds:
                                   compound  discretelabel
0    Oc1ccc(Nc2ccnc3cc(Cl)ccc23)cc1CN1CCCC1            1.0
1  CC(CN(C)C)CN1c2ccccc2CCc2ccccc21 (centres unmarked)            0.0
2  CCc1ccc2c(c1)N(CC(C)CN(C)C)c1ccccc1S2 (centres unmarked) [Ethylisobutrazine Hydrochloride]            0.0
3  CCC(CC)COC(=O)[C@H](C)N[P@](=O)(OC[C@H]1O[C@@](C#N)(c2ccc3c(N)ncnn23)[C@H](O)[C@@H]1O)Oc1ccccc1            1.0

Next up:
Request: Threshold test, CC50 < 20 µM: CN(C)CCOc1ccc2c(=O)c3ccc(OCCN(C)C)cc3oc2c1 [TILORINE DIHYDROCHLORIDE]
Response: 1.0

###

Entries and their CC50
# methodSummary: in vitro
# experimentalSetup: human, CC50 [μM] (Geomeans, n ≥ 2 except where indicated: *n = 1)

Known results for compounds:
compound	CC50
COc1ccc2cc1Oc1ccc(cc1)C[C@H]1c3c(cc4c(c3Oc3cc5c(cc3OC)CCN(C)[C@@H]5C2)OCO4)CCN1C [Cepharanthine]	> 25.4 µM
Cc1ccc(C(=O)Nc2cccc(C(F)(F)F)c2)cc1NC(=O)c1cccc2c(N)nccc12 [RFM-011-761-3]	> 21.2 µM
CN(C)CCC1CCc2cc(OCc3ccc(-c4ccccc4)cc3)ccc2C1 (stereo not shown) [TAK-070]	10.1 µM
CC(C)C(=O)OC[C@H]1O[C@@H](n2ccc(NO)nc2=O)[C@H](O)[C@@H]1O [MK-4482/EIDD-2801/Molnupiravir, Molnupiravir]	> 39.8 µM
c1cn2cc(-c3ccc4c(c3)nc3n4CCN4CCCCC4C3)ccc2n1 (stereo not shown) [Integrity ID 725781]	> 39.8 µM

Now consider a different compound.
Lookup result for O=c1nc(NO)ccn1[C@@H]1O[C@H](CO)[C@@H](O)[C@H]1O [N-hydroxycytidine] ; measured CC50: > 37.5 µM

###

# methodSummary: in vitro
# experimentalSetup: human
endpointName: CC50

Consider the reported CC50 for these compounds:
compound	CC50
CC(=N)N1CCC(Oc2ccc(N(Cc3ccc4ccc(C(=N)N)cc4c3)S(=O)(=O)CC(=O)O)cc2)CC1 [YM 60828]	> 29.9 µM
N=C(N)c1ccc2cc(OC(=O)c3ccc(CNC(=O)CCCC(=O)O)o3)ccc2c1 [TO-195]	> 29.9 µM

# context switch: different compound, same CC50
The reported CC50 of the compound CC[C@@H]1/C=C/C=C/C[C@H](C)[C@@H](O)[C@](C)(O)C(=O)[C@H](C)[C@@H](O)[C@H](C)C(=O)[C@H](C)[C@@H](O)[C@H](C)/C=C/C(=O)O[C@H]2[C@@H](C)[C@@H](CC1)O[C@@]1(CC[C@@H](C)[C@@H](C[C@H](C)O)O1)[C@@H]2C [OLIGOMYCINA] was > 29.9 µM

###

# Tested on: SARS-CoV-2
# methodSummary: microbe, parasite or virus in culture
# experimentalSetup: Severe acute respiratory syndrome coronavirus 2, HeLa-ACE2, 24 h, read-out: CoV-2 EC50 [μM] (Geomeans, n ≥ 2)
Where a name gives a salt, the structure may show the parent alone.
Quick list: EC50 per entry.
Express your answer in µM, writing the number without its unit.

Consider the following illustrative entries.
compound	EC50, µM
Oc1ccc(CCN2CCC(Nc3nc4ccccc4n3Cc3ccc(F)cc3)CC2)cc1	2.38
CC[C@@H](C(=O)O)[C@@H]1O[C@@H]([C@@H](C)[C@H](O)[C@H](C)C(=O)[C@H](CC)[C@H]2O[C@]3(C=C[C@@H](O)[C@]4(CC[C@@](C)([C@H]5CC[C@](O)(CC)[C@H](C)O5)O4)O3)[C@H](C)C[C@@H]2C)[C@@H](C)C[C@@H]1C	1.5
C=CC(=O)Nc1cc(Nc2nccc(-c3cn(C)c4ccccc34)n2)c(OC)cc1N(C)CCN(C)C	0.962

Note to self: EC50 recorded for `CCC(CC)COC(=O)[C@H](C)N[P@](=O)(OC[C@H]1O[C@@](C#N)(c2ccc3c(N)ncnn23)[C@H](O)[C@@H]1O)Oc1ccccc1` was 0.127

get_value(item= OC(CNCC(O)C1CCc2cc(F)ccc2O1)C1CCc2cc(F)ccc2O1 (stereo not drawn) [nebivolol hydrochloride] , readout=EC50) returns 2.96

###

# Tested on: SARS-CoV-2
# methodSummary: Checkerboard synergy study with remdesivir (ZIP model, synergyfinder)
# Type: cell-based
# experimentalSetup: Table 3
endpointName: Synergy score with remdesivir (δ)
Give the value as a plain number.

Sample answers from the record:
                                   molecule                       endpointname  numericreadout
0  NC1(c2ccc(-c3nc4ccn5c(=O)[nH]nc5c4cc3-c3ccccc3)cc2)CCC1 [MK-2206]  Synergy score with remdesivir (δ)           2.087
1  C=CC(=O)Nc1cc(Nc2nccc(-c3cn(C)c4ccccc34)n2)c(OC)cc1N(C)CCN(C)C [Osimertinib]  Synergy score with remdesivir (δ)          −0.722
2  CCOC(=O)[C@@H]1O[C@H]1C(=O)N[C@@H](CC(C)C)C(=O)N1CCN(Cc2ccc(OC)c(OC)c2OC)CC1 [NCO 700]  Synergy score with remdesivir (δ)           0.209
3  CCN1CCC(c2cc(C)c3nc(-c4cc5c(C)nc(C)cn5n4)cc(=O)n3c2)CC1 [SMN-C3]  Synergy score with remdesivir (δ)           −0.37
4  COC(=O)C1=C(C)NC(C)=C(C(=O)OC)C1c1cc([N+](=O)[O-])ccc1OCCCCNC[C@H](O)COc1ccccc1 [YM 161514]  Synergy score with remdesivir (δ)            0.60

// CC(C)Oc1ccc(-c2nc(-c3cccc4c3CC[C@@H]4NCCO)no2)cc1C#N [Ozanimod] : Synergy score with remdesivir (δ) value = −4.62

For reference, reported Synergy score with remdesivir (δ) for Nc1cc(OCC2CC2)c(C(=O)NC2CN3CCC2CC3)cc1Cl (centres unmarked) [Pancopride] stands at 0.65

Recorded result, CCCCC1CCc2cc(O)cc3c(CCN4CCN(c5cc(C)ccn5)CC4)c(C)n1c23 (centres unmarked) [KC 11404] , Synergy score with remdesivir (δ): −2.817
